# SYSTEM NAME: PCSK9 (Homo sapiens, UniProt Q8NBP7)
# Sequence (Q8NBP7 153-692): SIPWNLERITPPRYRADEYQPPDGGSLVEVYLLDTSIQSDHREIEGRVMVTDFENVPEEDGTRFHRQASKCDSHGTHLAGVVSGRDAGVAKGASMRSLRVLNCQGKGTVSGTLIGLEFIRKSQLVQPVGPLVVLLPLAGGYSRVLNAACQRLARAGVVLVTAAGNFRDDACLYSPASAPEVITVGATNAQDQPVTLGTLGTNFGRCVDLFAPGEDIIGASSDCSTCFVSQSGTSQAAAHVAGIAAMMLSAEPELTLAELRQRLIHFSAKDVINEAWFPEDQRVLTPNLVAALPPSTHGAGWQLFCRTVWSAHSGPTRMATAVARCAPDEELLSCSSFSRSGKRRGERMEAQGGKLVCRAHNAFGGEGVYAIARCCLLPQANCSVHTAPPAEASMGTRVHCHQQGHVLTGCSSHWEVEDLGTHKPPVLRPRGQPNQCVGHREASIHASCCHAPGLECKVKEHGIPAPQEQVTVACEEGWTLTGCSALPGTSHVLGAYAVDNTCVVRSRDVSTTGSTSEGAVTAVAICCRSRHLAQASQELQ
# ASSAY SUMMARY: PCSK9 Alexa FRET Standard assay (displacement of AlexaFluor647 tagged cyclic peptide Reagent A)
# Format: binding
# STATED CONDITIONS: 0.5 nM PCSK9, 20 nM AF cyclic peptide Reagent A
pIC50: −log10 of the molar value. Numbered stars: 1 amine (or outer) side, 2 acyl side, 3 side chain; on linkers, the order of the positions; unused ones are H or OH. Bridge positions count the residues as written; N and C are the ends. Square brackets hold non-standard residues; d marks the D form. Peptide text beside a SMILES is read from it. X6 = CC(=O)Oc1ccc2c(c1)CN([*:1])[C@H](C(=O)[*:2])C2; Ala(1H-tetrazol-5-yl) = N[C@@H](Cc1nnn[nH]1)C(=O)O; Trp(7-aza) = N[C@@H](Cc1c[nH]c2ncccc12)C(=O)O; mXylylene = c1cc(C[*:1])cc(C[*:2])c1; Aad = N[C@@H](CCCC(=O)O)C(=O)O; Tle = CC(C)(C)[C@H](N)C(=O)O; Nva = CCC[C@H](N)C(=O)O; Mpa = O=C(O)CCS

| COMPOUND | SYSTEM NAME | pIC50 |
| --- | --- | --- |
| CCC[C@@H]1NC(=O)[C@H](Cc2c[nH]c3ncccc23)NC(=O)[C@H]([C@@H](C)O)NC(=O)[C@@H]2CCCN2C(=O)[C@H](Cc2ccc(O)cc2)NC(=O)[C@H](C(C)(C)C)NC(=O)[C@@H](NC(C)=O)CCCC(=O)NCCCC[C@@H](C(N)=O)NC(=O)[C@H]([C@@H](C)O)NC(=O)[C@H](CCC)NC(=O)[C@@H]2Cc3ccc(OC(C)=O)cc3CN2C(=O)[C@H](C)NC1=O [Compound 074] (Ac-[Aad][Tle]YPT[Trp(7-aza)][Nva]A[X6][Nva]TK-NH2; lactam 1-12) | PCSK9 (Homo sapiens, UniProt Q8NBP7) | 6.00 to 7.00 |
| CCC[C@@H]1NC(=O)[C@H](Cc2c[nH]c3ncccc23)NC(=O)[C@H]([C@@H](C)O)NC(=O)[C@H](Cc2c[nH]cn2)NC(=O)[C@H](Cc2ccc(O)cc2)NC(=O)[C@H](C(C)(C)C)NC(=O)CCSCc2cccc(c2)CSC[C@@H](C(N)=O)NC(=O)[C@H]([C@@H](C)O)NC(=O)[C@H](CCC)NC(=O)[C@H](Cc2ccc(O)cc2)NC(=O)[C@H](Cc2nnn[nH]2)NC1=O [Compound 253] ([Mpa][Tle]YHT[Trp(7-aza)][Nva][Ala(1H-tetrazol-5-yl)]Y[Nva]TC-NH2; linker 1-12 via mXylylene) | PCSK9 (Homo sapiens, UniProt Q8NBP7) | 4.68 to 6.00 |
| CC(=O)N[C@H]1CSCc2cccc(c2)CSC[C@@H](C(N)=O)NC(=O)[C@H]([C@@H](C)O)NC(=O)[C@H](C)NC(=O)[C@H](Cc2ccc(O)cc2)NC(=O)[C@H](CCC(=O)O)NC(=O)[C@H](C)NC(=O)[C@H](Cc2c[nH]c3ncccc23)NC(=O)[C@H]([C@@H](C)O)NC(=O)[C@H](Cc2c[nH]cn2)NC(=O)[C@H](Cc2ccc(O)cc2)NC(=O)[C@H](C(C)(C)C)NC1=O [Compound 242] (Ac-C[Tle]YHT[Trp(7-aza)]AEYATC-NH2; linker 1-12 via mXylylene) | PCSK9 (Homo sapiens, UniProt Q8NBP7) | 4.68 to 6.00 |
